# test.target: PRMT5-MEP50 (Homo sapiens, UniProt O14744)
# Construct: The compounds were tested by means of FP with the full-length PRMT5-MEP50 complex; made in house
# Sequence (O14744 whole entry): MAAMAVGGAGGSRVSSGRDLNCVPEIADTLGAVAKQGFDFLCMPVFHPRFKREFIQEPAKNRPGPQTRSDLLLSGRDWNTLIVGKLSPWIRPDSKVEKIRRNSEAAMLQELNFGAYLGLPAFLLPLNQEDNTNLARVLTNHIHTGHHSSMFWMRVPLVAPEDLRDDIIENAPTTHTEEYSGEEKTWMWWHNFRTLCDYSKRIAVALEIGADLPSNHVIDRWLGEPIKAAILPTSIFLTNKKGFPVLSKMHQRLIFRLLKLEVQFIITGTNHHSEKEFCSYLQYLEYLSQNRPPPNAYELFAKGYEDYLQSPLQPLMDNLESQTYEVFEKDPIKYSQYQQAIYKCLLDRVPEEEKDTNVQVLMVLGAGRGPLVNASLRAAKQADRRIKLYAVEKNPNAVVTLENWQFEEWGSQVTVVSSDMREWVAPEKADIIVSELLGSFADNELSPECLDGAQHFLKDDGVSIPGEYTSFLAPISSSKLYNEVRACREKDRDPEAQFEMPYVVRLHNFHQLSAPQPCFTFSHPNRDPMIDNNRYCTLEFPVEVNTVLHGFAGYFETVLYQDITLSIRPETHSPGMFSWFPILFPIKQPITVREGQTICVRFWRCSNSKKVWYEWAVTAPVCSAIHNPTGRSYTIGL
# Sequence (Q9BQA1 whole entry partner): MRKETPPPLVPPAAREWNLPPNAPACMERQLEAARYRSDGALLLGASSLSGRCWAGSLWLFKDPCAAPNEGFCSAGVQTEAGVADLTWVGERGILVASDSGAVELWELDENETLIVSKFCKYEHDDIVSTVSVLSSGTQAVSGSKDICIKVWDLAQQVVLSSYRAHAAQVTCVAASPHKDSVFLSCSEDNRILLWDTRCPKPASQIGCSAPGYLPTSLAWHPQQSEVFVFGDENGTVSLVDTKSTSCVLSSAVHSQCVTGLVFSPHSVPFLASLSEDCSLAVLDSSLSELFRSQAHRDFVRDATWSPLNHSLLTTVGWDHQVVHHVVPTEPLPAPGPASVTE
# protocol.details: Direct binding fluorescence polarization (FP) assay of FITC-labeled peptides
# reported.conditions: FITC-labeled peptide 1 nM, PRMT5-MEP50 titrated, read-out: KD
measured.parameter: Kd (nM)
The response must be a number in nM with no trailing unit.

{"columns": ["compound", "test.target", "unit.info", "Kd"],
 "data": [
  ["CC(=O)N[C@H](C(=O)N1CCC[C@H]1C(=O)N[C@@H]1CCCCC[C@@H](C(=O)N[C@@H](CC(=O)O)C(=O)N[C@@H](C)C(=O)N[C@@H](CC(C(=O)O)C(=O)O)C(=O)N[C@@H](CCCCNC(=S)Nc2ccc3c(c2)C(=O)OC32c3ccc(O)cc3Oc3cc(O)ccc32)C(N)=O)NC(=O)[C@H](Cc2ccc([N+](=O)[O-])cc2)NC(=O)[C@H](CCC(N)=O)NC1=O)C(C)C", "PRMT5-MEP50 (Homo sapiens, UniProt O14744)", "nM", 89]
]}

Report measured Kd; entry is CC(=O)N[C@H](C(=O)N1CCC[C@H]1C(=O)NC1CC=CCC[C@@H](C(=O)N[C@@H](CC(=O)O)C(=O)N[C@@H](C)C(=O)N[C@@H](CC(=O)O)C(=O)N[C@@H](CCCCNC(=S)Nc2ccc3c(c2)C(=O)OC32c3ccc(O)cc3Oc3cc(O)ccc32)C(N)=O)NC(=O)[C@H](Cc2ccccc2)NC(=O)[C@H](CCC(N)=O)NC1=O)C(C)C (stereo partly drawn)
352
